Each entry below carries its reported AUC of viability dose-response curve.
Tested on: SEM cells
Assay: AUC of viability dose-response curve (% viability x log10 dose units); higher = less sensitive
Details: HPLM + 10% dialyzed FBS; 48 h
Number only, please.

Some solved entries appear below for comparison.
# compound, measurement.label, recorded.measurement
rows = [
    ("C[N]1C=C(C2=CC=CC=C12)\\C3=C(\\C(=O)NC3=O)C4=C[N](C5CCN(CC5)CC6=NC=CC=C6)C7=C4C=CC=C7", "AUC of viability dose-response curve", 461),
    ("O=[N+]([O-])c1ncc[nH]1", "AUC of viability dose-response curve", 402),
    ("CN1CCN(c2c(F)cc3c(=O)c(C(=O)O)cn(CCF)c3c2F)CC1", "AUC of viability dose-response curve", 439),
    ("O=C1CCC[C@@H]2[C@H]3CCCN4CCC[C@@H](CN12)[C@@H]34", "AUC of viability dose-response curve", 324),
    ("C=C1C(=O)OC(CCCCCCCC)C1C(=O)O (centres undefined)", "AUC of viability dose-response curve", 461),
    ("CCN1C[C@H](C)[N]2C(=C(O)C3=C2\\C(=N/N(CC4=CC=C(F)C(=C4)Cl)C3=O)C(=O)NC)C1=O", "AUC of viability dose-response curve", 440),
]

Problem: Look at this compound and give its reported AUC of viability dose-response curve. N[S+](=O)([O-])c1cc2c(cc1Cl)NC(C(Cl)Cl)N[S+]2(=O)[O-] (centres undefined)
Solution: 431

Problem: Any idea what its AUC of viability dose-response curve is? The compound is `O=C(Nc1nnc(-c2ccco2)o1)c1cc(-c2ccccc2)nc2ccccc12`
Solution: 442

Problem: What AUC of viability dose-response curve value was documented for this compound, `CC(C)(C)c1nc(-c2cccc(N[S+](=O)([O-])c3c(F)cccc3F)c2F)c(-c2ccnc(N)n2)s1` ?
Solution: 439
